Overview of recorded IC50 for various molecules
Target: Histone deacetylase
Test: Inhibition of HDAC in human HeLa nuclear extract using Boc-Lys-(Ac)-AMC as substrate preincubated for 15 mins followed by substrate addition measured after 60 mins by fluorescence assay
Format: protein assay
measurement.type: IC50 (nM)

{"smiles.structure": "Cc1cc(-c2ccc3c(c2)OCO3)nn1Cc1ccc(C(=O)NO)cc1", "quantitative.readout": 8}
{"smiles.structure": "Cc1ccc(-c2cc(C(F)(F)F)n(Cc3ccc(C(=O)NO)cc3)n2)cc1", "quantitative.readout": 33}
{"smiles.structure": "Cc1ccc(-c2cc(C)n(Cc3ccc(C(=O)NO)cc3)n2)cc1", "quantitative.readout": 13}
{"smiles.structure": "CCCc1cc(-c2ccc(F)cc2)nn1Cc1ccc(C(=O)NO)cc1", "quantitative.readout": 476}
{"smiles.structure": "O=C(CCCCCCNC(=O)c1cc(-c2ccc(F)cc2)[nH]n1)NO", "quantitative.readout": 43}
{"smiles.structure": "O=C(CCCNC(=O)c1cc(-c2ccc(F)cc2)[nH]n1)NO", "quantitative.readout": 2603}
{"smiles.structure": "Cc1ccc(-c2cc(C(F)(F)F)nn2-c2ccc(S(N)(=O)=O)cc2)cc1", "quantitative.readout": 1637}
{"smiles.structure": "O=C(CCCCCNC(=O)c1cc(-c2ccc(F)cc2)[nH]n1)NO", "quantitative.readout": 58}
{"smiles.structure": "Cc1cc(-c2ccc(F)cc2)nn1Cc1ccc(C(=O)NO)cc1", "quantitative.readout": 40}
{"smiles.structure": "O=C(NO)c1ccc(CNC(=O)c2cc(-c3ccc(F)cc3)[nH]n2)cc1", "quantitative.readout": 22}

----------
Target: Histone deacetylase 2 (Homo sapiens, UniProt Q92769)
Sequence (Q92769 whole entry): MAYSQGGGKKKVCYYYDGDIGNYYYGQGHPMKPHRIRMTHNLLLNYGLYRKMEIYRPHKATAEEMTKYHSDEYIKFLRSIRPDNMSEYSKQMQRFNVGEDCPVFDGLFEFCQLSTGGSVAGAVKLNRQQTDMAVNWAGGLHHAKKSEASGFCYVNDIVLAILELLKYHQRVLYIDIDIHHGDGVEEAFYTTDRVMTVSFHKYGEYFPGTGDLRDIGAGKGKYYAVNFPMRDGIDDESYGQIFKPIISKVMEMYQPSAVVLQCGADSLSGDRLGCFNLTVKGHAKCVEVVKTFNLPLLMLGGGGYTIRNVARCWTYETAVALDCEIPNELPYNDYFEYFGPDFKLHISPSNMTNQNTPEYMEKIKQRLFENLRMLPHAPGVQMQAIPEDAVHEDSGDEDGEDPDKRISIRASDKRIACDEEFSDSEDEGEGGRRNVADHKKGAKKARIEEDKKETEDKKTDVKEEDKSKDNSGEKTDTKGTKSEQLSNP
Assay: Inhibition of full length recombinant human C-terminal His-tagged HDAC2 expressed in baculovirus infected sf9 cells using Boc-Lys-(Ac)-AMC as substrate preincubated for 15 mins followed by substrate addition measured after 60 mins by fluorescence assay

{"smiles.structure": "O=C(CCCCNC(=O)c1cc(-c2ccc(F)cc2)[nH]n1)NO", "reported.relation": "=", "IC50 [nM]": 883}
{"smiles.structure": "O=C(NO)c1ccc(CNC(=O)c2cc(-c3ccc(F)cc3)[nH]n2)cc1", "reported.relation": "=", "IC50 [nM]": 17}
{"smiles.structure": "Cc1cc(-c2ccc3c(c2)OCO3)n(Cc2ccc(C(=O)NO)cc2)n1", "reported.relation": "=", "IC50 [nM]": 135}
{"smiles.structure": "Cc1cc(-c2ccc(F)cc2)nn1Cc1ccc(C(=O)NO)cc1", "reported.relation": "=", "IC50 [nM]": 114}
{"smiles.structure": "CCCc1cc(-c2ccc(F)cc2)n(Cc2ccc(C(=O)NO)cc2)n1", "reported.relation": "=", "IC50 [nM]": 2880}
{"smiles.structure": "O=C(CCCCCCNC(=O)c1cc(-c2ccc(F)cc2)[nH]n1)NO", "reported.relation": "=", "IC50 [nM]": 40}
{"smiles.structure": "Cc1ccc(-c2cc(C(F)(F)F)n(Cc3ccc(C(=O)NO)cc3)n2)cc1", "reported.relation": "=", "IC50 [nM]": 47}
{"smiles.structure": "O=C(NO)c1ccc(Cn2nc(Cc3ccccc3)cc2-c2ccc(F)cc2)cc1", "reported.relation": ">", "IC50 [nM]": 5000}

----------
Target: Protein deacetylase HDAC6 (Homo sapiens)
Sequence (Q9UBN7 whole entry): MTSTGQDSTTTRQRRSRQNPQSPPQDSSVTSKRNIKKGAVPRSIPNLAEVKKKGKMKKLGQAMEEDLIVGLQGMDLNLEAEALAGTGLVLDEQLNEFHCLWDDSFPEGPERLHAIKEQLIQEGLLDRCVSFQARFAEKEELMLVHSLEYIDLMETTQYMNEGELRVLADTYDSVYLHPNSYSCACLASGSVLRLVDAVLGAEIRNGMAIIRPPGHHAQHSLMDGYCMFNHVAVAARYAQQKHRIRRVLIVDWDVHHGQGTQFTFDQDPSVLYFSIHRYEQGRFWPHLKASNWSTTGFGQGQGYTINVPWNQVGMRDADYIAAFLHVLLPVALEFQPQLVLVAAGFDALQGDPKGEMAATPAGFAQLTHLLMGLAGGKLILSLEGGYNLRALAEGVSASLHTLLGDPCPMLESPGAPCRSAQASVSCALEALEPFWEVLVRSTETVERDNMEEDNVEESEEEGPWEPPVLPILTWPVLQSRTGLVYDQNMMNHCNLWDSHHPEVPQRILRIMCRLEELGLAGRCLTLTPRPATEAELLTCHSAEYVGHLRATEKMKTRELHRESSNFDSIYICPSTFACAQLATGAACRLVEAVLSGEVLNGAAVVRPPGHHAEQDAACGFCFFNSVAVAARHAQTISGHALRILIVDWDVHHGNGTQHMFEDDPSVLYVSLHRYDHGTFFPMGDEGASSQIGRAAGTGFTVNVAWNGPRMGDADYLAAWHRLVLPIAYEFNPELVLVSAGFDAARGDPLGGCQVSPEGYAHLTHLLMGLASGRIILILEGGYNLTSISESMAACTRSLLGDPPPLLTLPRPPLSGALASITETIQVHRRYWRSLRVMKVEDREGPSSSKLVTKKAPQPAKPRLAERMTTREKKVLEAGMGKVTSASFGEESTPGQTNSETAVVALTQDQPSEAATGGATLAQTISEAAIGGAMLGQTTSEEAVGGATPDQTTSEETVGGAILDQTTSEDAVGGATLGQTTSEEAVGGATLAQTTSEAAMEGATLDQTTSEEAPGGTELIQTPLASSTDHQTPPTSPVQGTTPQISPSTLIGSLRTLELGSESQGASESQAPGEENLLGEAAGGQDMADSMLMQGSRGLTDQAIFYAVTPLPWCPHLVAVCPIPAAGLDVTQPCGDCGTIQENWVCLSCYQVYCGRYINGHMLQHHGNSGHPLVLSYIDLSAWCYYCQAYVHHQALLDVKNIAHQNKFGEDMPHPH
Assay: Inhibition of full length recombinant human N-terminal GST-tagged HDAC6 expressed in baculovirus infected sf9 cells using Boc-Lys-(Ac)-AMC as substrate preincubated for 15 mins followed by substrate addition measured after 60 mins by fluorescence assay
pIC50: −log10 of the molar value.
Overview of recorded pIC50 for various compounds

{"smiles.structure": "Cc1ccc(-c2cc(C(F)(F)F)nn2Cc2ccc(C(=O)NO)cc2)cc1", "reported.relation": "=", "pIC50": 7.57}
{"smiles.structure": "O=C(CCNC(=O)c1cc(-c2ccc(F)cc2)[nH]n1)NO", "reported.relation": "<", "pIC50": 5.30}
{"smiles.structure": "Cc1ccc(-c2cc(C)nn2Cc2ccc(C(=O)NO)cc2)cc1", "reported.relation": "=", "pIC50": 7.54}
{"smiles.structure": "CCc1cc(-c2ccc(F)cc2)nn1Cc1ccc(C(=O)NO)cc1", "reported.relation": "=", "pIC50": 7.46}
{"smiles.structure": "CCCc1cc(-c2ccc(F)cc2)n(Cc2ccc(C(=O)NO)cc2)n1", "reported.relation": "=", "pIC50": 6.78}
{"smiles.structure": "CCCc1cc(-c2ccc(F)cc2)nn1Cc1ccc(C(=O)NO)cc1", "reported.relation": "=", "pIC50": 6.97}
{"smiles.structure": "CCc1cc(-c2ccc(F)cc2)n(Cc2ccc(C(=O)NO)cc2)n1", "reported.relation": "=", "pIC50": 7.16}
{"smiles.structure": "Cc1ccc(-c2cc(C(F)(F)F)nn2-c2ccc(C(=O)NO)cc2)cc1", "reported.relation": "=", "pIC50": 6.44}
{"smiles.structure": "O=C(CCCCNC(=O)c1cc(-c2ccc(F)cc2)[nH]n1)NO", "reported.relation": "=", "pIC50": 6.56}
{"smiles.structure": "Cc1ccc(-c2cc(C(F)(F)F)n(CCc3ccc(C(=O)NO)cc3)n2)cc1", "reported.relation": "=", "pIC50": 7.11}
{"smiles.structure": "Cc1ccc(-c2cc(C)n(Cc3ccc(C(=O)NO)cc3)n2)cc1", "reported.relation": "=", "pIC50": 8.15}

----------
Overview of recorded IC50 for various compounds
Target: Histone deacetylase 3/Nuclear receptor corepressor 2 (HDAC3/NCoR2) (Homo sapiens, UniProt O15379)
Sequence (O15379 whole entry, the tested form may be a part): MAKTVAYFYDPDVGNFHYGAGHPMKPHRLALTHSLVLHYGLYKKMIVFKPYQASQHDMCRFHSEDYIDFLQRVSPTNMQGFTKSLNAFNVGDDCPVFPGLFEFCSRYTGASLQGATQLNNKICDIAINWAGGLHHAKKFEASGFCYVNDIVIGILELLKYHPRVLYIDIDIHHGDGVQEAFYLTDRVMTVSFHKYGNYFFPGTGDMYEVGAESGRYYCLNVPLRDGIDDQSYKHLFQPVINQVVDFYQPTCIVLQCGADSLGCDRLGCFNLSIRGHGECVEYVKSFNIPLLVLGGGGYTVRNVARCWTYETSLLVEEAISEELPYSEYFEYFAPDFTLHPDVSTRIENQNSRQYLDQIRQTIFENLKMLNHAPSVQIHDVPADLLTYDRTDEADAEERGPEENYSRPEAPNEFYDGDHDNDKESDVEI
Sequence (Q9Y618 whole entry, further chain, the tested form may be a part): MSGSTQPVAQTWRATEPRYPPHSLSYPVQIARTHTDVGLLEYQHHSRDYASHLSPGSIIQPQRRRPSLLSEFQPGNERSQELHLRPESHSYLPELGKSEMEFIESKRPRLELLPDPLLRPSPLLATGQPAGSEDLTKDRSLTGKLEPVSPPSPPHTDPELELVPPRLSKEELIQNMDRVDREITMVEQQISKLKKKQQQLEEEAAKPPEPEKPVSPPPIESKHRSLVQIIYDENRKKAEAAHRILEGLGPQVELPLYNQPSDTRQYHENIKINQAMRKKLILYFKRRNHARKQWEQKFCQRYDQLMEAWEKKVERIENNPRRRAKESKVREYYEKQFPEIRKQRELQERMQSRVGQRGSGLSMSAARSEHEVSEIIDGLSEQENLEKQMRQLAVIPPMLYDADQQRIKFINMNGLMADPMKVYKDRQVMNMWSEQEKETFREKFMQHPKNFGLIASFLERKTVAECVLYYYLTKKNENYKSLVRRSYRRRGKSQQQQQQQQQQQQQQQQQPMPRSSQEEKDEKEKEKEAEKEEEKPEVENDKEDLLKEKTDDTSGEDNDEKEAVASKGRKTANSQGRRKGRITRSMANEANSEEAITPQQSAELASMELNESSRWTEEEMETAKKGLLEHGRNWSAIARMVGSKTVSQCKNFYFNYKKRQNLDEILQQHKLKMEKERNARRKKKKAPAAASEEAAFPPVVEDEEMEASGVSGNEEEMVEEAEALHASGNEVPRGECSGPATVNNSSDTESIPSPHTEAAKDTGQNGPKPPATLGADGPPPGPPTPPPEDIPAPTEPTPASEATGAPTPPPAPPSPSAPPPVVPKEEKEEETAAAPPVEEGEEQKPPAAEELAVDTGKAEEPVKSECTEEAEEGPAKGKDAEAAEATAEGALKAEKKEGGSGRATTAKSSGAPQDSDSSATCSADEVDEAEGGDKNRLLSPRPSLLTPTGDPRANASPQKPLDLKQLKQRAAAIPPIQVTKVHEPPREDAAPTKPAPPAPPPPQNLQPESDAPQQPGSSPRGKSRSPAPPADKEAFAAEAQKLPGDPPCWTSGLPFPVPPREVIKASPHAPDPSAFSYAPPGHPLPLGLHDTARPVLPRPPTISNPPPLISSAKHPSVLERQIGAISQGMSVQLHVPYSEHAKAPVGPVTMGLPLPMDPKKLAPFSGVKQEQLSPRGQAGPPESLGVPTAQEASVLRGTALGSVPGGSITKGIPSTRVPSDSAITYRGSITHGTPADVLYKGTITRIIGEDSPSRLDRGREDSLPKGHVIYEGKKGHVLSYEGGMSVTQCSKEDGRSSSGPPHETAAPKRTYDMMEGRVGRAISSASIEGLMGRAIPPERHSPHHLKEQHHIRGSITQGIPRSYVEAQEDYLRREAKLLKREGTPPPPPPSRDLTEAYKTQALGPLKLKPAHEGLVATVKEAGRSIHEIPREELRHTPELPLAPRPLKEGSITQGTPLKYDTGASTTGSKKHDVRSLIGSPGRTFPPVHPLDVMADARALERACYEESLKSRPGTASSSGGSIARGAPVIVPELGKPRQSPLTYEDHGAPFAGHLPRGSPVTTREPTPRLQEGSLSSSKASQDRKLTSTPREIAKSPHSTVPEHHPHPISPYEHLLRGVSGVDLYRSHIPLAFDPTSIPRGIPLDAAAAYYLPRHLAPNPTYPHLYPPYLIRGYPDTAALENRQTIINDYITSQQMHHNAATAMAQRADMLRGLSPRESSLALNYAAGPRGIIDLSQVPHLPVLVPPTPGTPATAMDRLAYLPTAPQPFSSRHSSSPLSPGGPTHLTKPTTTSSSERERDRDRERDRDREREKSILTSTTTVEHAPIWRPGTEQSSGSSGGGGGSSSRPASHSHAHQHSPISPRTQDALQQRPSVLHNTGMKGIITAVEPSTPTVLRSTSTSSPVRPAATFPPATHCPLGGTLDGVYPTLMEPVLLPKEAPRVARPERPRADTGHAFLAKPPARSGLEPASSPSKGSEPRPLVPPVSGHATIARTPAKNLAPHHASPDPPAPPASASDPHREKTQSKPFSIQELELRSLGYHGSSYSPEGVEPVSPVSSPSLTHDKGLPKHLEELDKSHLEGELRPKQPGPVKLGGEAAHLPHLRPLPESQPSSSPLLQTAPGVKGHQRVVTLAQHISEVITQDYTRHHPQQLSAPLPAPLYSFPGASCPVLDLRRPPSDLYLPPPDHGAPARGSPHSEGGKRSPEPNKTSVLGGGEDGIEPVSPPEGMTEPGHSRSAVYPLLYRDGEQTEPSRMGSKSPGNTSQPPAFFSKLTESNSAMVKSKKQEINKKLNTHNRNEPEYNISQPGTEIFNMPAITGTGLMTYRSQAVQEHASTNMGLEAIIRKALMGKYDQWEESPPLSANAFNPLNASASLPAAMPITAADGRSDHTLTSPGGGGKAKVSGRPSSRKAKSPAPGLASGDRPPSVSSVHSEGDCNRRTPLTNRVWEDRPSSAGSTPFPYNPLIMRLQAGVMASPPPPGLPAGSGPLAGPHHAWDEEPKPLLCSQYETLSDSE
Assay: Inhibition of full length recombinant human C-terminal His-tagged HDAC3/N-terminal GST-tagged NCOR2 (395 to 489 residues) expressed in baculovirus infected sf9 cells using Boc-Lys-(Ac)-AMC as substrate preincubated for 15 mins followed by substrate addition measured after 60 mins by fluorescence assay

{"smiles.structure": "Cc1cc(-c2ccc(F)cc2)nn1Cc1ccc(C(=O)NO)cc1", "reported.relation": "=", "IC50, nM": 69}
{"smiles.structure": "Cc1ccc(-c2cc(C(F)(F)F)nn2CCc2ccc(C(=O)NO)cc2)cc1", "reported.relation": "=", "IC50, nM": 816}
{"smiles.structure": "O=C(CCCCNC(=O)c1cc(-c2ccc(F)cc2)[nH]n1)NO", "reported.relation": "=", "IC50, nM": 671}
{"smiles.structure": "Cc1ccc(-c2cc(C(F)(F)F)n(CCc3ccc(C(=O)NO)cc3)n2)cc1", "reported.relation": "=", "IC50, nM": 80}
{"smiles.structure": "Cc1ccc(-c2cc(C(F)(F)F)nn2-c2ccc(C(=O)NO)cc2)cc1", "reported.relation": "=", "IC50, nM": 736}
{"smiles.structure": "O=C(NO)c1ccc(Cn2nc(Cc3ccccc3)cc2-c2ccc(F)cc2)cc1", "reported.relation": ">", "IC50, nM": 5000}
{"smiles.structure": "CCc1cc(-c2ccc(F)cc2)n(Cc2ccc(C(=O)NO)cc2)n1", "reported.relation": "=", "IC50, nM": 1840}
{"smiles.structure": "O=C(CCCCCNC(=O)c1cc(-c2ccc(F)cc2)[nH]n1)NO", "reported.relation": "=", "IC50, nM": 36}
{"smiles.structure": "Cc1ccc(-c2cc(C)nn2Cc2ccc(C(=O)NO)cc2)cc1", "reported.relation": "=", "IC50, nM": 53}
{"smiles.structure": "O=C(NO)c1ccc(CNC(=O)c2cc(-c3ccc(F)cc3)[nH]n2)cc1", "reported.relation": "=", "IC50, nM": 9}
{"smiles.structure": "Cc1ccc(-c2cc(C(F)(F)F)nn2Cc2ccc(C(=O)NO)cc2)cc1", "reported.relation": "=", "IC50, nM": 128}
{"smiles.structure": "O=C(CCCNC(=O)c1cc(-c2ccc(F)cc2)[nH]n1)NO", "reported.relation": "=", "IC50, nM": 1430}
{"smiles.structure": "Cc1cc(-c2ccc3c(c2)OCO3)nn1Cc1ccc(C(=O)NO)cc1", "reported.relation": "=", "IC50, nM": 36}
{"smiles.structure": "Cc1cc(-c2ccc(F)cc2)n(Cc2ccc(C(=O)NO)cc2)n1", "reported.relation": "=", "IC50, nM": 1200}
{"smiles.structure": "O=C(CCCCCCNC(=O)c1cc(-c2ccc(F)cc2)[nH]n1)NO", "reported.relation": "=", "IC50, nM": 35}
{"smiles.structure": "O=C(NO)c1ccc(Cn2nc(-c3ccc(F)cc3)cc2Cc2ccccc2)cc1", "reported.relation": "=", "IC50, nM": 619}
{"smiles.structure": "Cc1cc(-c2ccc3c(c2)OCO3)n(Cc2ccc(C(=O)NO)cc2)n1", "reported.relation": "=", "IC50, nM": 92}
{"smiles.structure": "CCc1cc(-c2ccc(F)cc2)nn1Cc1ccc(C(=O)NO)cc1", "reported.relation": "=", "IC50, nM": 228}
